assay: Xenon long-life fadeometer test of photochromic poly(methyl methacrylate) cast film (initial coloration density, T1/2, λmax), Example 9; type: physicochemical; settings: poly(methyl methacrylate) cast film 0.1 mm; maximum absorption wavelength
PROPERTY: λmax (nm)

In [3]: df
Out[3]:
                                   compound  value
0  CCN1C(=O)C2=C(C)c3cc(OC)c(OC)c(OC)c3C3(CC4CCC3C4)C2C1=O (stereo not shown) [(99)]    510
1  CCN1C(=O)C2=C(C)c3ccsc3C3(C4CC5CC(C4)CC3C5)C2C1=O (stereo not shown) [(X), reference compound]    530
2  CC1=C2C(=O)N(CC(=O)OCC(C)C)C(=O)C2C2(CC3CCC2C3)c2sc(Br)cc21 (stereo not shown) [(19)]    520
3  CC(=O)CN1C(=O)C2=C(c3ccccc3)c3cc(-c4ccccc4)sc3C3(C4CC5CC(C4)CC3C5)C2C1=O (stereo not shown) [(10)]    601

* * *

Assay: Xenon long-life fadeometer test of photochromic poly(methyl methacrylate) cast film (initial coloration density, T1/2, λmax), Example 9;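 as to Initial color density: 0.5 part by weight compound dispersed with PMMA in 100 parts benzene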
Format: physicochemical
Conditions: poly(methyl methacrylate) cast film 0.1 mm; initial coloration density (absorbance); xenon fadeometer
Excerpt: The thickness of the cast film was adjusted to 0.1 mm. T1/2 is defined as the time required for the color density to decrease to half of its initial value when the film is exposed to the fadeometer.
PROPERTY: Initial color density

Observe how each entry below is paired with its result.
In [3]: df
Out[3]:
                                   molecule  value
0  CC1=C2C(=O)N(CC#N)C(=O)C2C2(c3sccc31)C1CC3CC(C1)CC2C3 (stereo not shown) [(2)]   0.83
1  CC(=O)CN1C(=O)C2=C(c3ccccc3)c3cc(-c4ccccc4)sc3C3(C4CC5CC(C4)CC3C5)C2C1=O (stereo not shown) [(10)]   0.58

I: COC(=O)C(C)N1C(=O)C2=C(c3ccccc3)c3ccoc3C3(C4CC5CC3CC(Cl)(C5)C4)C2C1=O (stereo not shown) [(12)]
II: CCC(C(=O)OCCc1ccc2ccccc2c1)N1C(=O)C2=C(C)c3ccsc3C3(C4CC5CC(C4)CC3C5)C2C1=O (stereo not shown) [(5)]
Q: Of the two listed items, I and II , which carries the larger Initial color density figure? Respond with the label that goes with your answer.
Result: I
(I: 0.79, II: 0.51)

* * *

Assay: Xenon long-life fadeometer test of photochromic poly(methyl methacrylate) cast film (initial coloration density, T1/2, λmax), Example 9;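 as to Initial color density: 0.5 part by weight compound dispersed with PMMA in 100 parts benzene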
Type: physicochemical
Details: poly(methyl methacrylate) cast film 0.1 mm; initial coloration density (absorbance); xenon fadeometer
Source text: The thickness of the cast film was adjusted to 0.1 mm. T1/2 is defined as the time required for the color density to decrease to half of its initial value when the film is exposed to the fadeometer.
PROPERTY: Initial color density

Observe how each entry below is paired with its result.
In [3]: df
Out[3]:
                                   compound  value
0  CCn1c2c(c3ccccc31)C(C)=C1C(=O)OC(=O)C1C21C2CCC(C2)C1(C)C (stereo not drawn)   0.49
1  CNC(=O)CN1C(=O)C2=C(C)c3cc([N+](=O)[O-])sc3C3(C4CC5CC(C4)CC3C5)C2C1=O (stereo not drawn)   0.61
2  COC12CC3CC(C1)C1(c4oc5ccccc5c4C(C)=C4C(=O)N(CC(=O)OC(C)(C)CCC#N)C(=O)C41)C(C3)C2 (stereo not drawn)   0.82

P: COC(=O)CN1C(=O)C2=C(C)c3ccsc3C3(C4CC5CC(C4)CC3C5)C2C1=O (stereo not drawn)
Q: CC1=C2C(=O)N(CC#N)C(=O)C2C2(c3occc31)C1CC3CC(C1)CC2C3 (stereo not drawn)
R: CC1=C2C(=O)OC(=O)C2C2(CC3CCC2C3)c2sc(Br)cc21 (stereo not drawn)
Q: Rank the items in ascending order with respect to Initial color density. Write out the labels following the order that was asked for.
Result: R, P, Q
